Molecular target: human α-thrombin (Homo sapiens)
Format: biochemical
Settings: ratio of IC50s
assay.endpoint: fold decrease in potency from 9a (fold)

CCOC(=O)c1c(C)oc2cc(OC)c(OCc3oc4cc(OC)c(OCc5oc6cc(OCC)c(OS(=O)(=O)[O-])cc6c5C(=O)OCC)cc4c3C(=O)OCC)cc12.[Na+] [9f]	8.6

A. C=CCOC(=O)c1c(C)oc2cc(OC)c(OCc3oc4cc(OC)c(OCc5oc6cc(OC)c(OS(=O)(=O)[O-])cc6c5C(=O)OCC)cc4c3C(=O)OCC)cc12.[Na+] [compound 13]
B. CCOC(=O)c1c(C)oc2cc(OC)c(OCc3oc4cc(OC)c(OCc5oc6cc(OC(C)C)c(OS(=O)(=O)[O-])cc6c5C(=O)OCC)cc4c3C(=O)OCC)cc12.[Na+] [9g]
Exercise: Would you let me know which has the greater fold decrease in potency from 9a value, A or B ? Mark your answer with the label of the selected entry.
Solution: B
